B1: library; numbered along this chain (parent)
chain: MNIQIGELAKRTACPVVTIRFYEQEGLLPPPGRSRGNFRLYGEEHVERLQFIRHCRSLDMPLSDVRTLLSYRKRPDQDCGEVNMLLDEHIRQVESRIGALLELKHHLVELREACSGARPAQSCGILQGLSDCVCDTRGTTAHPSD

variants of: B1; test: sfGFP reporter fluorescence (15 h) (µM FITC); higher = stronger transcriptional activation; settings: library round: Round 1; ligand: 1 µM Pb
Respond with 1 for sfGFP reporter fluorescence values of 0.2 and above, -1 for values below.

Some solved entries appear below for comparison.
INSERT INTO assay_data (residue_string, class_name) VALUES
  ('MNIQIGELAKRTACPVVTIRFYEQEGLLPPPGRSRGNFRLYGEEHVERLQFIRHCRSLDLPLSKVRTLLSYRKRPDQDCGEVNMLLDEHIRQVESRIGALLELKHHLVELREACSGARPAQSCGILQGLSDCVCSTRGTTAHPSD', 1),
  ('MNIQIGELAKRTACPVVTIRFYEQEGLLPPPGRSRGNFRLYGEEHVERLQFIRHCRSLDMNLSDVRTLLSYRKRPDQDCGEVNMLLDEHIRQVESRIGALLELKHHLVELREACSGARPAQSCGILQGLSDCVCATRGTTAHPSD', -1),
  ('MNIQIGELAKRTACPVVTIRFYEQEGLLPPPGRSRGNFRLYGEEHVERLQFIRHCRSLDMNLSKVRTLLSYRKRPDQDCGEVNMLLDEHIRQVESRIGALLELVHHCVELREACSGARPAQSCGILQMLSDCVCDTRGTTAHPSD', 1);

# input Answer whether sfGFP reporter fluorescence of `MNIQIGELAKRTACPVVTIRFYEQEGLLPPPGRSRGNFRLYGEEHVERLQFIRHCRSLDMPLSDVRTLLSYRKRPDQDCGEVNMLLDEHIRQVESRIGALLELKHHLVILLEACSGARPAQSCGILQGLSDCVCDTRGTTAHPSD` is greater than or equal to 0.2.
# output -1

# input Answer whether sfGFP reporter fluorescence of `MNIQIGELAKRTACPVVTIRFYEQEGLLPPPGRSRGNFRLYGEEHVERLQFIRHCRSLDLPLSDVRTLLSYRKRPDQDCGEVNMLLDEHIRQVESRIGALLELKHHLVELREACSGARPAQSCGILQGLSCCVCDTRGTTAHPSD` is greater than or equal to 0.2.
# output 1

# input Answer whether sfGFP reporter fluorescence of `MNIQIGELAKRTACPVVTIRFYEQEGLLPPPGRSRGNFRLYGEEHVERLQFIRHCRSLDMPLSDVRTLLSYRKRPDQDCGEVNMLLDEHIRQVESRIGALLELKHHCVELLEACSGARPAQSCGILQMLSDCVCDTRGTTAHPSD` is greater than or equal to 0.2.
# output 1

# input Answer whether sfGFP reporter fluorescence of `MNIQIGELAKRTACPVVTIRFYEQEGLLPPPGRSRGNFRLYGEEHVERLQFIRHCRSLDMPLSDVRTLLSYRKRPDQDCGEVNALLDEHIRQVESRIGALLELKHHLVELREACSGARPAQSCGILQGLSHCVCDTRGTTAHPSD` is greater than or equal to 0.2.
# output -1
